# Tested on: NCI-H460 lung
# protocol_summary: NCI tumour cell line growth inhibition, 48 h
quantity_kind: TGI (µM)

- compound: "Oc1ccc(N=Nc2ccc(N=Nc3ccccc3)cc2)cc1"
  inequality_sign: "="
  experimental_value: 6.16
- compound: "COc1cc(/C=C2\\CC3C4CC[C@H]5C[C@@H](O)CC[C@]5(C)C4CC[C@]3(C)C2=O)cc(OC)c1OC (stereo not given in full)"
  inequality_sign: "="
  experimental_value: 38.9
- compound: "CCN1C[C@]2(C)CC[C@H](OCc3ccccc3)C34C5C[C@@H]6CC[C@](O)(C(C[C@@H]32)C14)C5[C@H]6OCc1ccccc1 (stereo not given in full)"
  inequality_sign: ">"
  experimental_value: 100
- compound: "COC(=O)[C@@]1(O)C[C@H]2O[C@]1(C)n1c3ccccc3c3c4c(c5c6ccccc6n2c5c31)C(=O)NC4"
  inequality_sign: "="
  experimental_value: 1.38
- compound: "CS(=O)(=O)Nc1cc(-c2ccc3ncnc(Nc4ccc5c(cnn5Cc5ccccc5F)c4)c3c2)cnc1Cl"
  inequality_sign: "="
  experimental_value: 58
- compound: "Clc1ccc(SCCCCCCCCCCSc2ccc(Cl)cc2)cc1"
  inequality_sign: ">"
  experimental_value: 78.7
- compound: "CO/N=C(/C(=O)OC)c1ccccc1COc1cccc(C(F)(F)F)c1"
  inequality_sign: ">"
  experimental_value: 100
- compound: "CC(=O)c1cccc(NC(=O)C(=O)C(C(=O)c2ccccc2F)C2OC(=O)c3ccccc32)c1 (stereo not given)"
  inequality_sign: ">"
  experimental_value: 100
- compound: "COc1cccc2c(=O)c3c(sc12)c(NCCN(C)C)nc1ccccc13"
  inequality_sign: "="
  experimental_value: 2.88
- compound: "C/C(=N/NC(=S)NCCc1ccccn1)c1cnccn1"
  inequality_sign: ">"
  experimental_value: 100
